TESTED SYSTEM: T1, ZFP SBS#1321 (synthetic)
T1 chain: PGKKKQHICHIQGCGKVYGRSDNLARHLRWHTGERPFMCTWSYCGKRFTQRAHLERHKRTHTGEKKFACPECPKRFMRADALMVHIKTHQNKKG
TEST DETAILS: EMSA
CONDITION PARAMETERS: tags: MBP fusion
MEASURE NAME: Kd (nM)
I only need the number, in nM, no unit after it.

[ask] Item under review: TTGGGAGAG (dsDNA) DNA 1: TTGGGAGAG DNA 2: CTCTCCCAA . Reported Kd?
[reply] 0.127
